Value source: patent US20260297085A1

# SUBJECT OF TEST: human JAK3 kinase domain (JH1) (Homo sapiens)
# Construct: recombinantly generated catalytic kinase (also known as JH1) domain of human JAK1, JAK2, JAK3 and TYK2
# Sequence (P52333 822-1111 limits assumed): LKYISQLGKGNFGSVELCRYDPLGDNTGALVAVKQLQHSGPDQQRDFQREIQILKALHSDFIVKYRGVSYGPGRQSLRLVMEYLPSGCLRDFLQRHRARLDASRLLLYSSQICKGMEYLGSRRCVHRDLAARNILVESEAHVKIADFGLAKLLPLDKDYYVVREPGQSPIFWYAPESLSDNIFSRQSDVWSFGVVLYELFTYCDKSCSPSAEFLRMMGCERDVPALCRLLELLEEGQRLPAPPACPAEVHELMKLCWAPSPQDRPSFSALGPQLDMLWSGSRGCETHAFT
# ASSAY SUMMARY: JH1 biochemical assay for JAK3 (ADP-Glo kinase assay, recombinant JH1 catalytic domain, JAK3-974 peptide, 4 μM ATP)
# MEASUREMENT PARAMETERS: JH1 kinase domain, ADP-Glo
pIC50: −log10 of the molar value. Counter-ions that a name gives are not always drawn.
Listing: pIC50 of selected compounds

Some compounds with known pIC50 results, for comparison:
// returns reported pIC50 for input `Cn1cc(-c2cc3c(N4CC[C@@](C#N)(C5CC5)C4=O)ccnn3c2)cn1` 6.00 to 7.00

// returns reported pIC50 for input `C[C@@H]1CN(c2ccnn3cc(-c4cnn(-c5ccccn5)c4)cc23)C(=O)[C@]1(C#N)C1CC1` 6.00 to 7.00

// returns reported pIC50 for input `[2H]C([2H])([2H])n1cc(-c2cn3nccc3c(N3C[C@@H](C)[C@@](C#N)(C4CC4)C3=O)n2)cn1` > 7.00

// returns reported pIC50 for input C[C@@H]1CN(c2ccnn3cc(-c4cncc(C#N)n4)cc23)C(=O)[C@]1(C#N)C1CC1 [Example 133, trifluoroacetate] 5.30 to 6.00

// returns reported pIC50 for input `CC[C@@H]1C[C@](C#N)(C2CC2)C(=O)N1c1ccnn2cc(-c3cnn(C)c3)cc12` 5.00 to 5.30

// returns reported pIC50 for input `[2H]C([2H])([2H])n1cc(-c2cc3c(N4C[C@@H](C)[C@@](C#N)(C5CC5)C4=O)ccnn3c2)cn1` > 7.00

New cases:
// returns reported pIC50 for input `C[C@@H]1CN(c2ccnn3cc(-c4ccc(OC(F)F)nc4)cc23)C(=O)[C@]1(C#N)C1CC1` 6.00 to 7.00

// returns reported pIC50 for input C[C@@H]1CN(c2ccnn3cc(-c4cn(C)nn4)cc23)C(=O)[C@]1(C#N)C1CC1 [Example 112, trifluoroacetate] 6.00 to 7.00

// returns reported pIC50 for input `COc1ccc(-c2cn3nccc3c(N3C[C@@H](C)[C@@](C#N)(C4CC4)C3=O)n2)nc1` 6.00 to 7.00

// returns reported pIC50 for input `C[C@@H]1CN(c2ccnn3cc(-c4ccnc(C#N)c4)cc23)C(=O)[C@]1(C#N)C1CC1` 6.00 to 7.00

// returns reported pIC50 for input Cn1cc(-c2cc3c(N4CC[C@@](C#N)(C5CCC5)C4=O)ccnn3c2)cn1 (single isomer, unassigned) 6.00 to 7.00

// returns reported pIC50 for input `C[C@@H]1CN(c2ccnn3cc(-c4cnn(S(C)(=O)=O)c4)cc23)C(=O)[C@]1(C#N)C1CC1` 6.00 to 7.00

* * *

Listing: pIC50 of selected molecules
# SUBJECT OF TEST: human JAK2 kinase domain (JH1) (Homo sapiens, UniProt O60674)
# Construct: recombinantly generated catalytic kinase (also known as JH1) domain of human JAK1, JAK2, JAK3 and TYK2
# Sequence (O60674 849-1124 limits assumed): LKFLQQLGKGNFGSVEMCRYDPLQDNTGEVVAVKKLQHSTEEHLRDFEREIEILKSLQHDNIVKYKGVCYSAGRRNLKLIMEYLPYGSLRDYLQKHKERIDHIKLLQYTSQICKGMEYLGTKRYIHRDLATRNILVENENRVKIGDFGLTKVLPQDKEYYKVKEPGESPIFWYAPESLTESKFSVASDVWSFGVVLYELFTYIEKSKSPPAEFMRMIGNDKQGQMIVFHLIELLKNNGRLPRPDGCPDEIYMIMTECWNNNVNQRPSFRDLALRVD
# ASSAY SUMMARY: JH1 biochemical assay for JAK2 (ADP-Glo kinase assay, recombinant JH1 catalytic domain, JAK3-974 peptide, 15 μM ATP)
# MEASUREMENT PARAMETERS: JH1 kinase domain, ADP-Glo
pIC50: −log10 of the molar value. Structures can show the parent of a compound that is named as a salt.

Some molecules with known pIC50 results, for comparison:
// returns reported pIC50 for input C[C@@H]1CN(c2ccnn3cc(-c4ccc(S(C)(=O)=O)nc4)cc23)C(=O)[C@]1(C#N)C1CC1 [Example 52] 6.00 to 7.00

// returns reported pIC50 for input C[C@@H]1CN(c2ccnn3cc(-c4cncnc4)cc23)C(=O)[C@]1(C#N)C1CC1 [Example 92] 5.00 to 5.30

// returns reported pIC50 for input C[C@@H]1CN(c2ccnn3cc(-c4ncccc4O)cc23)C(=O)[C@]1(C#N)C1CC1 [Example 149, trifluoroacetate] 5.00 to 5.30

// returns reported pIC50 for input C[C@@H]1CN(c2ccnn3cc(-c4cnn(C)n4)cc23)C(=O)[C@]1(C#N)C1CC1 [Example 99, trifluoroacetate] 5.30 to 6.00

// returns reported pIC50 for input COc1cccnc1-c1cc2c(N3C[C@@H](C)[C@@](C#N)(C4CC4)C3=O)ccnn2c1 [Example 146, trifluoroacetate] 5.00 to 5.30

New cases:
// returns reported pIC50 for input C[C@@H]1CN(c2ccnn3cc(-c4cnn(C)c4)nc23)C(=O)[C@]1(C#N)C1CC1 [Example 182] 6.00 to 7.00

// returns reported pIC50 for input C[C@@H]1CN(c2ccnn3cc(-c4ccc(=O)n(C)c4)cc23)C(=O)[C@]1(C#N)C1CC1 [Example 83] 6.00 to 7.00

// returns reported pIC50 for input C[C@@H]1CN(c2nc(-c3cnn(C4CCOCC4)c3)cn3nccc23)C(=O)[C@]1(C#N)C1CC1 [Example 203] > 7.00

// returns reported pIC50 for input C[C@@H]1CN(c2ncnn3cc(-c4cnn(C)c4)cc23)C(=O)[C@]1(C#N)C1CC1 [Example 180] 5.00 to 5.30

// returns reported pIC50 for input Cn1cc(-c2cc3c(N4C[C@@H](C(F)F)[C@@](C#N)(C5CC5)C4=O)ccnn3c2)cn1 (racemic) [Example 153] 5.30 to 6.00

// returns reported pIC50 for input C[C@@H]1CN(c2ccnn3cc(-c4ncc(C#N)s4)cc23)C(=O)[C@]1(C#N)C1CC1 [Example 117, trifluoroacetate] 5.30 to 6.00

// returns reported pIC50 for input Cn1cc(-c2cc3c(N4CC[C@](C#N)(C5COC5)C4=O)ccnn3c2)cn1 (single isomer, unassigned) [Example 44] < 5.00

// returns reported pIC50 for input C[C@@H]1CN(c2ccnn3cc(-c4cnn(C5CCOC5)c4)cc23)C(=O)[C@]1(C#N)C1CC1 (stereo partly drawn) [Example 162] > 7.00

// returns reported pIC50 for input COc1ccc(-c2cc3c(N4C[C@@H](C)[C@@](C#N)(C5CC5)C4=O)ccnn3c2)cn1 [Example 48] 6.00 to 7.00

// returns reported pIC50 for input CC[C@@H]1CN(c2ccnn3cc(-c4cnn(C)c4)cc23)C(=O)[C@]1(C#N)C1CC1 [Example 23] 6.00 to 7.00
